// provenance: patent US6849653B2

- target.desc: IKK2 (IKKβ), rhIKK2 homodimer (Homo sapiens)
- Construct: made in house; host or cells: insect cells (baculovirus; SF9)
- procedure.text: IKKβ (IKK2) Resin Enzyme Assay
- Format: biochemical
- condition.context: Table 3; read-out: IKK2 Resin IC 50
pIC50: −log10 of the molar value. Structures can show the parent of a compound that is named as a salt.
value.type: pIC50

# annotated cases, reported pIC50 shown
1. NC(=O)c1nn(-c2ccc(F)cc2)c2c1cc(-c1cccnc1)c1ccc(NC(=O)c3ccncc3Cl)cc12 [Example 45, dihydrochloride] :: 5.00 to 6.00
2. NC(=O)c1nn(-c2ccc(F)cc2F)c2c1ccc1ccc(NC(=O)c3cccnc3Cl)cc12 :: ≥ 6.00
3. NC(=O)c1nn(-c2ccc(F)cc2)c2c1ccc1ccc(NC(=O)c3cccnc3Cl)cc12 :: ≥ 6.00
4. NC(=O)c1nn(-c2ccc(F)cc2)c2c1ccc1ccc(NC(=O)c3ccccc3Cl)cc12 :: 5.00 to 6.00

// for each compound below, give its pIC50
1. NC(=O)c1nn(-c2ccc(F)cc2)c2c1cc(Br)c1ccc(NC(=O)c3ccncc3Cl)cc12
2. NC(=O)c1nn(-c2ccc(F)cc2)c2c1ccc1ccc(N)cc12
3. NC(=O)c1nn(-c2ccc(F)cc2)c2c1ccc1ccc(NC(=O)c3ccncc3Cl)cc12
4. CS(=O)(=O)Nc1ccc2ccc3c(C(N)=O)nn(-c4ccc(F)cc4)c3c2c1

-- reply
1. ≥ 6.00
2. 4.00 to 5.00
3. ≥ 6.00
4. ≥ 6.00

###

I'd appreciate it if you could supply pIC50 values for the items below.
- target.desc: rhIKK1/IKK2 heterodimer (Homo sapiens, UniProt O14920+O15111)
- Construct: made in house; host or cells: insect cells (baculovirus coinfection; SF9)
- Sequence (O14920 1-756): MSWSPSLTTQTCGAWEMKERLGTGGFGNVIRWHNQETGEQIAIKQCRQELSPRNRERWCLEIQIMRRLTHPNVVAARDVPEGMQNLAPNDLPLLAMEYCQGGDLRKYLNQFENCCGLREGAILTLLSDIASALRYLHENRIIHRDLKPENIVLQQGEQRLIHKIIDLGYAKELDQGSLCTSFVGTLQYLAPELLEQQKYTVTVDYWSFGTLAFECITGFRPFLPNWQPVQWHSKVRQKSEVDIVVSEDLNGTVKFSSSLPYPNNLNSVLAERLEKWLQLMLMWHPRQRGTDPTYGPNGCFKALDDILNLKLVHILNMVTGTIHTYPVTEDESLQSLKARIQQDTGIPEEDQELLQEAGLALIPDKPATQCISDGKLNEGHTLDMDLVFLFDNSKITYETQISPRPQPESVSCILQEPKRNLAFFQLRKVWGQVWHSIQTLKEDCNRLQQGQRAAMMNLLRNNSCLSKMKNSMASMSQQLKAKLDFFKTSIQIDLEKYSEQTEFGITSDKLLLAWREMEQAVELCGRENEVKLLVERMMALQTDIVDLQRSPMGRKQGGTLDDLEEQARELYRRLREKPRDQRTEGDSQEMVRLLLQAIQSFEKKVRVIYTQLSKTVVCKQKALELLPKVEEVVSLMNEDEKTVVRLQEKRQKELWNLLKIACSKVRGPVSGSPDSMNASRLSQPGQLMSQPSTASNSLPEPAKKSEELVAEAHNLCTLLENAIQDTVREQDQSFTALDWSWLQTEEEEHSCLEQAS
- Sequence (O15111 1-745): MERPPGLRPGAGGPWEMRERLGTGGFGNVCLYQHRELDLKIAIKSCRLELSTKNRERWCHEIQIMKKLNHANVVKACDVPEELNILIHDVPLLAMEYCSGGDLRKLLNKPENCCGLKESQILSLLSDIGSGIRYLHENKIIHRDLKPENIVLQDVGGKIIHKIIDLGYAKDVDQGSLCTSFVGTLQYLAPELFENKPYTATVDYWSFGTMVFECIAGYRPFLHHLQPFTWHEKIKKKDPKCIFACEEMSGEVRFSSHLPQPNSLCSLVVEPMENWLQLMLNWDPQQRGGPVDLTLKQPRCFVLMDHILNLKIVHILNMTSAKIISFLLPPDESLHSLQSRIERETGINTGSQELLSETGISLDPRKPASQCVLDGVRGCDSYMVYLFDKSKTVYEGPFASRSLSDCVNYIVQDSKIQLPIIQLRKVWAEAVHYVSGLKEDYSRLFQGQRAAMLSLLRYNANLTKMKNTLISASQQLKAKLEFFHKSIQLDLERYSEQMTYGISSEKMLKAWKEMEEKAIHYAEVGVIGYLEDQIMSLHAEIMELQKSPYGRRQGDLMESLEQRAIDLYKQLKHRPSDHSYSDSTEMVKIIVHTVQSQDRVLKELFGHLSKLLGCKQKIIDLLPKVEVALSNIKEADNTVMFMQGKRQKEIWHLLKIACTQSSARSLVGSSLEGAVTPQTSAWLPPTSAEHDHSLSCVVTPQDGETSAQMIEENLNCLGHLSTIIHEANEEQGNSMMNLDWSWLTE
- procedure.text: IKK Heterodimer Resin Enzyme Assay
- Type: biochemical
- condition.context: Table 1; values given as bins; read-out: HetD (IKK heterodimer assay values expressed as IC50)
- Procedure: cDNAs of human IKK1 and IKK2 were amplified by reverse transcriptase-polymerase chain reaction from human placental RNA (Clonetech). hIKK1 was subcloned into pFastBac HTa (Life Technologies) and expressed as N-terminal His6-tagged fusion protein. […] Resin was allowed to settle for one hour and 50 ul of supernatant was removed to a Micolite-2 flat bottom plate (Dynex). […] ATP was measured using a Top-Count NXT (Packard).
pIC50: −log10 of the molar value.

1. Cc1cccc(S(=O)(=O)Nc2ccc3ccc4c(C(N)=O)nn(-c5ccc(S(N)(=O)=O)cc5)c4c3c2)c1 :: 4.00 to 5.00
2. NC(=O)c1nn(-c2ccc(S(N)(=O)=O)cc2)c2c1ccc1ccc(NC(=O)c3ccncc3)cc12 :: ≥ 6.00
3. NC(=O)c1nn(-c2ccc(S(N)(=O)=O)cc2)c2c1ccc1ccc(NS(=O)(=O)c3cccc(Br)c3)cc12 :: 5.00 to 6.00

Hi there! I need pIC50 for each item below, if you can.
1. NC(=O)c1nn(-c2ccc(S(N)(=O)=O)cc2)c2c1ccc1ccc(NC(=O)c3cccc(Br)c3)cc12
2. C=CCN(CC=C)S(=O)(=O)c1ccc(-n2nc(C(N)=O)c3ccc4ccc(N)cc4c32)cc1
3. NC(=O)c1nn(-c2ccc(S(N)(=O)=O)cc2)c2c1ccc1ccc(NS(=O)(=O)c3cccc(C(F)(F)F)c3)cc12
4. N#Cc1cccc(C(=O)Nc2ccc3ccc4c(C(N)=O)nn(-c5ccc(S(N)(=O)=O)cc5)c4c3c2)c1
5. NC(=O)c1nn(-c2ccc(S(N)(=O)=O)cc2)c2c1ccc1ccc(NS(=O)(=O)c3cccc(Cl)c3)cc12
6. NC(=O)c1nn(-c2ccc(S(N)(=O)=O)cc2)c2c1ccc1ccc(NC(=O)c3cccc(Cl)c3Cl)cc12

-- reply
["≥ 6.00", "≥ 6.00", "4.00 to 5.00", "≥ 6.00", "5.00 to 6.00", "≥ 6.00"]
